- System: MCF7-R (mammary carcinoma cells 250-fold resistant to paclitaxel)
- test_method_notes: Tumor growth inhibitory activity (cytotoxicity), SRB method of Skehan et al, MCF7-R
- Format: cell-based, human
- experimental_parameters: Homo sapiens, MCF7R, 72 h, read-out: IC50 MCF7-R (breast)
- Description: The results were obtained according to the methods of Skehan et al (See Skehan et al., J. Nat. Cancer Inst., 82, 1107 (1990)), as more fully described in the Examples. The resistance factor (R/S) shown in the table is a measure of the degree of resistance of a cell line against a taxoid compound. […] Assessment of cell growth inhibition was determined according to the methods of Skehan et al (See Skehan et al., J. Nat. Cancer Inst., 82, 1107 (1990)). […] Optical density was measured at 570 nm. […]
pIC50: −log10 of the molar value.
pIC50 values for the compounds below.

[
  {
    "compound": "COc1cccc(C(=O)O[C@H]2C3[C@](C)(C(=O)[C@H](OC(=O)N(C)C)C4=C(C)[C@@H](OC(=O)[C@H](O)[C@H](C=C(F)F)NC(=O)OC(C)(C)C)C[C@]2(O)C4(C)C)[C@@H](O)C[C@H]2OC[C@@]32OC(C)=O)c1 (some centres unmarked)",
    "pIC50": 9.02
  },
  {
    "compound": "CC(=O)O[C@@]12CO[C@@H]1C[C@H](O)[C@@]1(C)C(=O)[C@H](OC(=O)N(C)C)C3=C(C)[C@@H](OC(=O)[C@H](O)[C@H](C=C(F)F)NC(=O)OC(C)(C)C)C[C@@](O)([C@@H](OC(=O)c4cccc(F)c4)C12)C3(C)C (some centres unmarked)",
    "pIC50": 8.65
  }
]
